# targetEntity: mutant G12C K-RAS (Homo sapiens, UniProt P01116, G12C)
# Construct: made in house; host or cells: E. coli BL21
# testProtocol: covalent adduct formation (CAF) with mutant G12C K-RAS
# Type: binding
# Parameters: unit not given here
# experimentalParameters: Table 3, Pyridone Core-Morpholine Unsubstituted; after 60 minutes at 10 micromolar
Assign Criterion met whenever CAF does not fall below 2; assign Criterion not met whenever it does.

compound: C=CC(=O)N1CCN(c2c(C#N)c(=O)n3c4c(c(-c5c(O)cccc5F)c(Cl)cc24)OCC3)[C@@H](C)C1 [Example 39]
targetEntity: mutant G12C K-RAS (Homo sapiens, UniProt P01116, G12C)
categoryLabel: Criterion not met

compound: C=CC(=O)N1CCN(c2cc(=O)n3c4c(c(-c5c(C)ccc6[nH]ncc56)ccc24)CCC3)CC1 [Example 46]
targetEntity: mutant G12C K-RAS (Homo sapiens, UniProt P01116, G12C)
categoryLabel: Criterion met

compound: C=CC(=O)N1C[C@H](C)N(c2cc(=O)n3c4c(c(-c5ccc(F)cc5F)c(Cl)cc24)OCC3)C[C@H]1C [Example 44]
targetEntity: mutant G12C K-RAS (Homo sapiens, UniProt P01116, G12C)
categoryLabel: Criterion met

compound: C=CC(=O)N1CCN(c2cc(=O)n3c4c(c(-c5c(C)ccc6[nH]nc(C)c56)ccc24)CCC3)CC1 [Example 48]
targetEntity: mutant G12C K-RAS (Homo sapiens, UniProt P01116, G12C)
categoryLabel: Criterion not met

compound: C=CC(=O)N1C[C@H](C)N(c2c(C#N)c(=O)n3c4c(c(-c5c(O)cccc5F)c(Cl)cc24)OCC3)C[C@H]1C [Example 41]
targetEntity: mutant G12C K-RAS (Homo sapiens, UniProt P01116, G12C)
categoryLabel: Criterion met

compound: C=CC(=O)N1C[C@H](C)N(c2c(C#N)c(=O)n3c4c(c(-c5c(O)cccc5F)c(Cl)cc24)OCC3)C[C@H]1C [Example 43]
targetEntity: mutant G12C K-RAS (Homo sapiens, UniProt P01116, G12C)
categoryLabel: Criterion not met

compound: C=CC(=O)N1CCN(c2c(C#N)c(=O)n3c4c(c(-c5c(O)cccc5F)c(Cl)cc24)OCC3)[C@@H](C)C1 [Example 40]
targetEntity: mutant G12C K-RAS (Homo sapiens, UniProt P01116, G12C)
categoryLabel: Criterion met

compound: C=CC(=O)N1CCN(c2c(C#N)c(=O)n3c4c(c(-c5c(O)cccc5F)c(Cl)cc24)OCC3)[C@@H](C)C1 [Example 38]
targetEntity: mutant G12C K-RAS (Homo sapiens, UniProt P01116, G12C)
categoryLabel: Criterion met

compound: C=CC(=O)N1CCN(c2cc(=O)n3c4c(c(-c5c(O)cccc5F)ccc24)CCC3)CC1 [Example 45]
targetEntity: mutant G12C K-RAS (Homo sapiens, UniProt P01116, G12C)
categoryLabel: Criterion not met

compound: C=CC(=O)N1C[C@H](C)N(c2c(C#N)c(=O)n3c4c(c(-c5c(O)cccc5F)c(Cl)cc24)OCC3)C[C@H]1C [Example 42]
targetEntity: mutant G12C K-RAS (Homo sapiens, UniProt P01116, G12C)
categoryLabel: Criterion not met
